# Test system: Wnt/β-Catenin signaling pathway
# Test protocol: Wnt signaling luciferase (TOPflash) reporter gene assay
# Assay type: cell-based
# Stated conditions: luciferase reporter gene assay; mean of three independent experiments; read-out: IC50 (nM) to inhibit the Wnt signaling activity
# Source text: A dual-luciferase gene reporter assay was used to test inhibitory activities of new compounds on Wnt signaling. […] Therefore, the effects of new compounds on AMPK was examined. […]
Measure: IC50 (nM)

1: Cc1ccccc1-n1nnc(C(=O)Nc2cnc3ccccc3n2)c1C [YA6045]
2: O=C(Nc1nc2ccccc2s1)c1csc(-c2ccccc2)n1 [YA6082]
3: Cc1c(C(=O)Nc2nc3ccccc3s2)nnn1-c1c(Cl)cccc1Cl [YA1066]
Sort the listed entries by IC50, smallest first. Response field: labels, in requested order.
1, 3, 2

I: Cc1c(C(=O)Nc2cnc3ccccc3n2)nnn1-c1ccccc1 [YA6141]
II: Cc1c(C(=O)Nc2nc3ccccc3s2)cnn1-c1c(F)cccc1F [YA4019]
Given the listed items, does I or II have the lesser reported IC50? State the label of the item chosen.
II
(II: 0.9 nM, I: 1.7 nM)

a: Cc1c(C(=O)Nc2nc3ccccc3s2)cnn1-c1c(F)cccc1Br [YA4017]
b: Cc1ccccc1-n1nnc(C(=O)Nc2nc3cc(F)ccc3s2)c1C [YA4101]
c: Cc1c(C(=O)Nc2nc3ccc(F)cc3s2)nnn1-c1ccccc1F [YA4155]
d: Cc1c(C(=O)Nc2nc3ccccc3s2)cnn1-c1ccccc1F [YA4007]
e: Cc1c(C(=O)Nc2nc3ccccc3s2)nnn1-c1c(F)cccc1F [YA6090]
Order each entry by recorded IC50, climbing from the minimum. Response field: labels, in requested order.
c, d, e, a, b

* * *

# System: Wnt/β-Catenin signaling pathway
# Test protocol: Wnt signaling luciferase (TOPflash) reporter gene assay
# Format: cell-based
# Text: A dual-luciferase gene reporter assay was used to test inhibitory activities of new compounds on Wnt signaling. […] Therefore, the effects of new compounds on AMPK was examined. […]
Measure: inhibition at 1 µM (%)
// return numeric value only (unit: %, not printed)

INSERT INTO results (compound, assay_result) VALUES
  ('O=C(Nc1nc2ccc(F)cc2s1)c1nnn(-c2ccccc2F)c1C(F)(F)F', 85);

Indicate its recorded inhibition at 1 µM; the compound in question is "Cc1ccccc1-n1nnc(C(=O)Nc2nc(-c3ccccn3)cs2)c1C"
7

Indicate its recorded inhibition at 1 µM; the compound in question is "Cc1c(C(=O)Nc2nc3ccccc3s2)nnn1-c1ccccc1C(F)(F)F"
89

Indicate its recorded inhibition at 1 µM; the compound in question is Cc1cc(/C=C/c2ccc3cc(N(C)C)ccc3[n+]2C)c(C)n1-c1ccccc1 [Pyrvinium, reference compound]
69

Indicate its recorded inhibition at 1 µM; the compound in question is "Cc1ccccc1-n1nnc(C(=O)Nc2nc3cc(Cl)ccc3s2)c1C"
61

Indicate its recorded inhibition at 1 µM; the compound in question is "Cc1c(C(=O)Nc2nc3ccccc3s2)nnn1-c1c(F)cccc1F"
97

* * *

# System: Wnt/β-Catenin signaling pathway
# Test protocol: Wnt signaling luciferase (TOPflash) reporter gene assay
# Type: cell-based
Entries annotated with measured inhibition at 1 µM
// return numeric value only (unit: %, not printed)

See these solved cases before continuing.
INSERT INTO assay_data (compound, measure, assay_result) VALUES
  ('Cc1ccccc1-n1nnc(C(=O)Nc2nc3ccc(Br)cc3s2)c1C [YA4059]', 'inhibition at 1 µM', 31),
  ('Cc1c(C(=O)Nc2nc3ccc(F)cc3s2)nnn1-c1ccccc1F [YA4155]', 'inhibition at 1 µM', 96),
  ('Cc1ccccc1-n1nnc(C(=O)Nc2nc3c(Cl)cccc3s2)c1C [YA4095]', 'inhibition at 1 µM', 8),
  ('CC(C)(C)c1c(C(=O)Nc2nc3ccccc3s2)nnn1-c1ccccc1F [YA6176]', 'inhibition at 1 µM', 58),
  ('Cc1c(C(=O)Nc2nc3ccccc3s2)nnn1-c1cccc(Br)c1 [YA1050]', 'inhibition at 1 µM', 7),
  ('Cc1c(C(=O)Nc2nc3ccccc3s2)nnn1-c1ccc(F)cc1F [YA1046]', 'inhibition at 1 µM', 40),
  ('Cc1c(C(=O)Nc2nc3ccccc3s2)nnn1-c1cc(F)ccc1F [YA1084]', 'inhibition at 1 µM', 88),
  ('Cc1c(C(=O)Nc2nc3ccccc3s2)nnn1-c1ccc(F)cc1 [YA1076]', 'inhibition at 1 µM', 15);

Indicate its recorded inhibition at 1 µM; the compound in question is Cc1ccccc1-n1nnc(C(=O)Nc2nc3c(Br)cccc3s2)c1C [YA4097]
11

Indicate its recorded inhibition at 1 µM; the compound in question is Cc1ccccc1-n1nnc(C(=O)Nc2nc(-c3ccccc3)c(-c3ccccc3)s2)c1C [YA4133]
49

Indicate its recorded inhibition at 1 µM; the compound in question is COc1cccc2sc(NC(=O)c3nnn(-c4ccccc4C)c3C)nc12 [YA4061]
27

Indicate its recorded inhibition at 1 µM; the compound in question is Cc1ccccc1-n1nnc(C(=O)Nc2nc3c(F)cccc3s2)c1C [YA4093]
37
